activity at 30 min reference
- Target under test: UniProt:P05181
- Protocol conditions: human, microsomes, pH 7.4
Express it in %; write the number only.

c1ccc(C2CO2)cc1 (centres unmarked) [Styrene oxide, 8,9-styrene oxide]
28

// query Tell me the measured activity at 30 min of `C=Cc1ccccc1` , please.
// result 20

* * *

- Target under test: CYP2E1 (Homo sapiens, UniProt P05181)
- Sequence (P05181 whole entry): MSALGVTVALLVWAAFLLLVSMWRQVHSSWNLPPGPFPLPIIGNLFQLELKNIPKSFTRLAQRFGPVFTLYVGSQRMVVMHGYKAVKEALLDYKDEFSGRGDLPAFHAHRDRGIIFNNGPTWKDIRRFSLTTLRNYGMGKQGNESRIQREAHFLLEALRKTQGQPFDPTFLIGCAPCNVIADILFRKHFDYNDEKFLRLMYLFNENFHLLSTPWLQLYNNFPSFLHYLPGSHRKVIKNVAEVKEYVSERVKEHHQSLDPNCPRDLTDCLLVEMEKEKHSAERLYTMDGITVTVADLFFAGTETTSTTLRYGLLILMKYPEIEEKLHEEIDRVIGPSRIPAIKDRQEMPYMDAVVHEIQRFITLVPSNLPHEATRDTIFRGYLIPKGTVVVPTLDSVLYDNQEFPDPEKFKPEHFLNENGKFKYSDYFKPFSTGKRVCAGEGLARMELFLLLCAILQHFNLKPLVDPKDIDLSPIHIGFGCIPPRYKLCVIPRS
- Test summary: in vitro
- Protocol conditions: recombinant enzyme, pH 7.4
Measure name: IC50 at 30 min (µM)
Express it in µM; write the number only.

// query Tell me the measured IC50 at 30 min of C=Cc1ccc(O)cc1 [4-Vinylphenol, 4-vinylphenol] , please.
// result 24

* * *

- Target under test: CYP2E1 activity with HLM150 (Homo sapiens)
- Test summary: Steady-state inhibition kinetics of 4-nitrophenol oxidation, HLM150
Ki reference
Express it in µM; write the number only.

c1ccc(C2CO2)cc1 (centres unmarked) [Styrene oxide, 8,9-styrene oxide]
160

// query Tell me the measured Ki of C=Cc1ccc(O)cc1 [4-Vinylphenol, 4-vinylphenol] , please.
// result 61

* * *

- Target under test: CYP2E1 activity with HLM150 (Homo sapiens, UniProt P05181)
- Sequence (P05181 whole entry): as above
- Test summary: Steady-state inhibition kinetics of 4-nitrophenol oxidation, HLM150
- Protocol conditions: Ksi,ap, HLM150; apparent, cooperative site; 95% CI in parentheses
Measure name: Ki (µM)
Express it in µM; write the number only.

// query Tell me reported Ki for `C=Cc1ccccc1` , tested with CYP2E1 activity with HLM150 (Homo sapiens, UniProt P05181).
// result 58

* * *

- Target under test: CYP2E1 (Homo sapiens, UniProt P05181)
- Protocol conditions: human, recombinant enzyme, pH 7.4
activity at 30 min reference
Express it in %; write the number only.

c1ccc(C2CO2)cc1 (centres unmarked) [Styrene oxide, 8,9-styrene oxide]
13

// query Tell me the measured activity at 30 min of `C=Cc1ccccc1` , please.
// result 11

* * *

activity at 30 min reference
- Target under test: CYP2E1 (Homo sapiens)
- Test summary: in vitro
- Protocol conditions: microsomes, pH 7.4
Express it in %; write the number only.

OCC(O)c1ccccc1 (racemic) [R/S-Styrene glycol, (R/S)-1,2-phenylethanediol]
18

Field: next compound
// query Tell me the measured activity at 30 min of C=Cc1ccc(O)cc1 [4-Vinylphenol, 4-vinylphenol] , please.
// result 19

* * *

- Target under test: CYP2E1 (Homo sapiens)
- Test summary: Steady-state inhibition kinetics of 4-nitrophenol oxidation, CYP2E1 Supersomes
- Protocol conditions: Ki,ap, apparent, catalytic site, 95% CI in parentheses
Ki reference
Express it in µM; write the number only.

c1ccc(C2CO2)cc1 (stereo not drawn) [Styrene oxide, 8,9-styrene oxide]
110
C=Cc1ccccc1 [Styrene, styrene]
67

// query Tell me the measured Ki of C=Cc1ccc(O)cc1 [4-Vinylphenol, 4-vinylphenol] , please.
// result 47
